FYI, the data here is from the supplement of paper PMC6607015.

tested on: HeLa MZ; assay: LBPA endosome anti-LBPA integrated intensity (sum per cell), Z-score; higher = more LBPA staining; conditions: compound concentration in added solution (µM; 5 µl added to 20 µl cells): 10; 18 h
Structures can show the parent of a compound that is named as a salt.
List of LBPA endosome anti-LBPA integrated intensity (z-score) values.
Just the number, please, no unit attached.

molecule: CCCCC(C)(O)C/C=C/[C@H]1[C@H](O)CC(=O)[C@@H]1CCCCCCC(=O)OC (mixture of isomers) [Misoprostol]
number: -0.811
//
molecule: Cc1c(N)c(=O)n(-c2ccccc2)n1C [Ampyrone]
number: -0.409
//
molecule: Cc1ccc(-c2cc(C(F)(F)F)nn2-c2ccc(S(N)(=O)=O)cc2)cc1 [Celecoxib]
number: 0.702

Record CN1Cc2c(N)cccc2C(c2ccccc2)C1 (configuration not stated) [Nomifensine maleate] ; system HeLa MZ; LBPA endosome anti-LBPA integrated intensity (z-score) = 0.114

Summary line: COc1ccccc1Oc1c(NS(=O)(=O)c2ccc(C(C)(C)C)cc2)nc(-c2ncccn2)nc1OCCO [Bosentan] , HeLa MZ, reported LBPA endosome anti-LBPA integrated intensity (z-score) = -0.445

Value (LBPA endosome anti-LBPA integrated intensity (z-score), HeLa MZ) for record CC1(C)O[C@@H]2C[C@H]3[C@@H]4C[C@H](F)C5=CC(=O)C=C[C@]5(C)[C@@]4(F)[C@@H](O)C[C@]3(C)[C@]2(C(=O)CO)O1 [Fluocinolone acetonide] = -0.371

Summary: COc1ccccc1N1CCN(CCCNc2cc(=O)n(C)c(=O)n2C)CC1 [Urapidil hydrochloride] , HeLa MZ, LBPA endosome anti-LBPA integrated intensity (z-score) = 0.724

LBPA endosome anti-LBPA integrated intensity (z-score) value, target or system HeLa MZ, for CC1CC(OC(=O)c2ccccc2O)CC(C)(C)C1 (configuration not stated) [Homosalate] : -0.48

Form field, LBPA endosome anti-LBPA integrated intensity (z-score) with HeLa MZ, item C=C1C[C@H]2[C@@H]3C=C(C)C4=CC(=O)CC[C@]4(C)[C@H]3CC[C@]2(C)[C@@]1(OC(C)=O)C(C)=O [Melengestrol acetate] : 1.67

# CCOc1ccccc1OCC1CNCCO1 (configuration not stated) [Viloxazine hydrochloride] with HeLa MZ: LBPA endosome anti-LBPA integrated intensity (z-score) is 0.639

Record C#C[C@]1(O)CC[C@H]2[C@@H]3CCc4cc(OC)ccc4[C@H]3CC[C@@]21C [Ethynylestradiol 3-methyl ether] ; system HeLa MZ; LBPA endosome anti-LBPA integrated intensity (z-score) = 0.717

Field LBPA endosome anti-LBPA integrated intensity (z-score) (HeLa MZ), entry O=C(O)CCCC[C@@H]1SC[C@@H]2NC(=O)N[C@@H]21 [Biotin] : -0.782

Noted LBPA endosome anti-LBPA integrated intensity (z-score) for Cc1cc(CC(=O)O)n(C)c1C(=O)c1ccc(Cl)cc1 [Zomepirac sodium salt] , tested on HeLa MZ: 0.635

The observed LBPA endosome anti-LBPA integrated intensity (z-score) for Cc1ncc([N+](=O)[O-])n1CC(O)CCl (configuration not stated) [Ornidazole] when tested with HeLa MZ stands at -0.445

Noted LBPA endosome anti-LBPA integrated intensity (z-score) for CC(C)NCC(O)c1cc(O)cc(O)c1 (configuration not stated) [Metaproterenol sulfate, orciprenaline sulfate] , tested on HeLa MZ: -0.417

Entry COc1ccc2c(c1)C(=O)N(CCc1ccc(S(=O)(=O)NC(=O)NC3CCCCC3)cc1)C(=O)C2(C)C [Gliquidone] under HeLa MZ had LBPA endosome anti-LBPA integrated intensity (z-score) of 0.216

Test item CC(C)(CO)C(O)C(=O)NCCCO (configuration not stated) [Panthenol (D)] ; HeLa MZ; reported LBPA endosome anti-LBPA integrated intensity (z-score) was -0.28
